Molecular target: human σ1 receptor (Homo sapiens (Human))
Sequence (Q99720 whole entry): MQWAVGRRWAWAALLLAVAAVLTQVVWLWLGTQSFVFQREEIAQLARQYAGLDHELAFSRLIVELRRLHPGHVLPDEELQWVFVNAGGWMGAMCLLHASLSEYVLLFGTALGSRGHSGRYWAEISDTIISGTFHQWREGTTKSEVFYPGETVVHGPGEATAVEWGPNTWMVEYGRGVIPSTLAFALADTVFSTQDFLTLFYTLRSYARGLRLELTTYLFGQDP
Experiment: Human σ1 receptor radioligand assay
Assay type: binding
Settings: [3H](+)-pentazocine radioligand, transfected HEK-293 membranes; read-out: Ki-σ1
Property Measured: Ki

QUERY: Give the measured Ki of CCN1CC(C)OC2(CCN(CCc3ccccc3)CC2)C1 (stereo not shown) [Example 112] .
RESULT: < 100 nM
